I'd be grateful if you could share measured growth for these entries.
Tested on: OVCAR-4 ovarian
Experiment: NCI-60 one-dose screen, 48 h (100 = growth as untreated, 0 = no growth, -100 = all killed)
Conditions: 10 µM unless noted
Description: Growth inhibition of the OVCAR-4 human tumor cell line is measured as a screen for anti-cancer activity. Cells are grown in 96 well plates and exposed to the test compound for 48 hours. Compounds are tested at a single concentration, which is 10^-5 M for most compounds. The reported endpoint is percent growth (GI% or GIPRCNT), where numbers from 0 - 100% represent growth inhibition, and numbers from -100% - 0 represent cell death. For example, a value of 40 represents 60% growth inhibition. […]
The panel holds about 83,000 compounds, 20% with a hit somewhere; the sample as a whole holds those more often.
Answers are plain numbers, in %.

# compound, growth [%]
records = [
    ("Cc1nc(Nc2cccc(NC(=O)Nc3ccc(Cl)cc3)c2)c2ccccc2n1", 47.8),
]

Parameter requested: growth. Apply to each item below.
1. COc1ccc(-c2nnc(-c3ccc4c(c3)nc(-c3ccccc3)n4C3CCCCC3)o2)cc1
2. CCOC(=O)c1nnn(C(Cc2ccccc2Cl)C(=O)OCC)c1C (stereo not given)

Response:
1. 51
2. 104

Parameter requested: growth. Apply to each item below.
1. CCN(CC)CCCNC(=O)c1ccc(N)cc1
2. COc1ccc(/C=C2\COc3ccc(O)cc3C2=O)cc1OC
3. CCOC(=O)c1cnn2c(-c3ccc(Cl)cc3)nc(NCc3ccccc3)nc12
4. CNC(=O)c1c(NC(=O)c2ccc(C(C)(C)C)cc2)sc2c1CCC(=O)C2

Response:
114
92.8
5.61
-66.4

Parameter requested: growth. Apply to each item below.
1. Oc1[nH]c2ccccc2c1/C=c1/cc2c(c(-c3ccc(F)cc3)n1)=Nc1ccccc1-2
2. CCN(CC)CCNc1ccc(C)c2sc3cc(C)ccc3c(=O)c12
3. COc1cc(NC(=O)c2cccc(-c3cc(=O)c4c(O)c(OC)c(OC)cc4o3)c2)cc(OC)c1OC

Response:
1. -65.1
2. 85.3
3. 58.6

* * *

system: NCI/ADR-RES ovarian; experiment: NCI-60 one-dose screen, 48 h; settings: 10 µM unless noted
About 83,000 compounds went through this panel and 20% of them were active in at least one assay; those are over-represented in the sample as a whole. Active and inactive are the calls of the source. How the source made its calls: active means growth percent below 10; inactive means the rest.
Select the correct class. Options are active, inactive and nothing else.

# compound, group.label
measured = [
    ("NS(=O)(=O)c1cn(-c2ncnc3nc[nH]c23)ccc1=O", "inactive"),
]

Query: Field: outcome | Entry: Cl.Fc1c[c-]c(-c2ccccn2)c(F)c1.[Pt].c1ccc([PH+](c2ccccc2)c2ccccc2[PH+](c2ccccc2)c2ccccc2)cc1
Response: active

Query: Field: outcome | Entry: Cc1nc(C)c(-c2nn3c(-c4cccc(F)c4)nnc3s2)s1
Response: inactive

Query: Field: outcome | Entry: CN1C(=O)CCC(N2C(=O)c3cccc(NCCOCCOCCNC(=O)c4cc5c(o4)C(=O)c4ccccc4C5=O)c3C2=O)C1=O (centres undefined)
Response: inactive

Query: Field: outcome | Entry: Nc1nc(Nc2ccc(Cl)cc2)nn1S(=O)(=O)c1ccc(-c2ccc(F)cc2)cc1
Response: inactive

Query: Field: outcome | Entry: CCN(CC)CCOC(=O)Nc1ccccc1Cl
Response: inactive

Query: Field: outcome | Entry: C=C(CNCCc1ccc(O)cc1)[C@@H]1CC[C@]2(COC3CCCCO3)CC[C@]3(C)[C@H](CC[C@@H]4[C@@]5(C)CCC(N)C(C)(C)[C@@H]5CC[C@]43C)[C@@H]12 (some centres undefined)
Response: active

Query: Field: outcome | Entry: O=C(CCCCCCCn1cc(-c2cccnc2)nn1)Nc1ccccc1-c1ccccc1
Response: inactive

Query: Field: outcome | Entry: O=[N+]([O-])c1ccc(-c2cc3c(Nc4ccc(Cl)c(C(F)(F)F)c4)ncnc3s2)cc1
Response: active
